Quick reference for IC50 among some binders
Target: beta-catenin (human)
Sequence (B6V8E6 146-665 limits assumed): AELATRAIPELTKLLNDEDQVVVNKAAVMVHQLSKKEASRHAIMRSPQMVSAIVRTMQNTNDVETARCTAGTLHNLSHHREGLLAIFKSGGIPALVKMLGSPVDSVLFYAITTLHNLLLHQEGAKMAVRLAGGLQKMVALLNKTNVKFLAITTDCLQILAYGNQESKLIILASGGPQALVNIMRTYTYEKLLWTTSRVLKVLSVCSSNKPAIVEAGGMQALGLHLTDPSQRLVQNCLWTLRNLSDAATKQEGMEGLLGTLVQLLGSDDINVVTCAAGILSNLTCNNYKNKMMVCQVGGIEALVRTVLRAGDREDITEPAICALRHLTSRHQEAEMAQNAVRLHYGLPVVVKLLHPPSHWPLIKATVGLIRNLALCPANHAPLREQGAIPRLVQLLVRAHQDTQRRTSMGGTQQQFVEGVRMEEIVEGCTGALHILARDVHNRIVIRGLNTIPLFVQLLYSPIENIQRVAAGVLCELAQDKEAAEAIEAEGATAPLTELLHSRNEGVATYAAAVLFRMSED
Test: fluorescence polarization
*1 amine or outer side, *2 acyl side, *3 side chain or, on linkers, in order; H or OH if unused. Bridges are numbered along the chain shown (N, C = ends). Primed or numbered codes have the meaning given here. [ ]: non-standard residue; d: D form. Phe(3-COOH) = N[C@@H](Cc1cccc(C(=O)O)c1)C(=O)O; 2F3MeF = Cc1cccc(C[C@H](N[*:1])C(=O)[*:2])c1F; Bta = N[C@@H](Cc1csc2ccccc12)C(=O)O; tBuAla = CC(C)(C)C[C@H](N)C(=O)O; 3Thi = N[C@@H](Cc1ccsc1)C(=O)O; PyrS2(4) = not defined here; hSer = N[C@@H](CCO)C(=O)O; TfeGA = not defined here; GlnR = not defined here; PL3 = not defined here; B5 = not defined here

| binder | val |
| --- | --- |
| Ac-[PL3]DL[B5]D[Phe(3-COOH)]AAFK[PyrS2(4)][3Thi][Bta][GlnR]-NH2 (staple 1-4; bridge 10-14; reading uncertain; also: PyrS2 tied into a staple, partner not placed, printed as Ac-PL3-Asp-Leu-B5-Asp-3COOHF-Ala-Ala-Phe-Lys*3-PyrS2-3Thi-BztA-GlnR*3-NH2) [I-11] | < 50 nM |
| Ac-[PL3][hSer][tBuAla][B5]D[TfeGA]AAFK[PyrS2(4)][2F3MeF][Bta][GlnR]A-NH2 (staple 1-4; bridge 10-14; reading uncertain; also: PyrS2 tied into a staple, partner not placed) [I-115] | > 1000 nM |

// switching to the query binder
// field: IC50; key: Ac-[PL3]D[tBuAla][B5]D[Phe(3-COOH)]AAFK[PyrS2(4)][2F3MeF][Bta][GlnR]L-NH2 (staple 1-4; bridge 10-14; not fully specified (residue 10); printed as Ac-PL3-Asp-Npg-B5-Asp-3COOHF-Ala-Ala-Phe-Lys*3-PyrS2-2F3MeF-BztA-GlnR*3-Leu-NH2; reading uncertain; also: PyrS2 tied into a staple, partner not placed) [I-105] ; value = < 50 nM

meta.source: patent US20260207704A1
